Tested on: A549
RUN_DESCRIPTION: Cytotoxicity against human A549 cells after 72 hrs by MTS assay
Type: functional, cell-based
MEASUREMENT_PARAMETERS: A549, 72 h
REPORTED_PROPERTY: IC50 (nM)
One number for each entry, in nM.

Some compounds with recorded IC50:
C=CCc1cc(-c2ccc(OC)c(CC=C)c2)ccc1O = 1990
C=CCc1cc(-c2ccc(OC)c(CC=C)c2)c(O)c(-c2ccc(OC)c(CC=C)c2)c1 = 1250
C=CCc1cc(-c2cccc(CC=C)c2O)ccc1OC = 6280

For the 4 compounds below, give their IC50 values.
1. C=CCc1ccc(O)c(-c2ccc(OC)c(CC=C)c2)c1 [METHYLHONOKIOL]
2. C=CCc1cc(Br)c(O)c(-c2ccc(OC)c(CC=C)c2)c1
3. C=CCc1ccc(O)c(-c2cccc(CC=C)c2O)c1
4. C=CCc1ccc(O)c(-c2ccc(O)c(CC=C)c2)c1 [HONOKIOL]

1: 1240; 2: 1040; 3: 1080; 4: 7750
